Tested on: MOLP-8 cells
Protocol Summary: MOLP-8 cell proliferation assay (alamarBlue)
Assay type: cell-based
Study Conditions: inhibition of cell proliferation, 120 hours, human multiple myeloma cell line
# label = bin(measured IC50), where bins are zone 1 (below 100 nM), zone 2 (100 nM to below 600 nM), zone 3 (600 nM or more)

Consider the worked cases shown below.
GET /class?item= `CC(C)NC(=O)c1ccc(Nc2ccc3c(c2)N(C2CCCC2)[C@H](C)C(=O)N3C)cc1` zone 3

Just checking, what class would you give `COc1ccc(CN2c3cc(Nc4ccc(C(=O)NC5CCN(C)CC5)cc4)ccc3N(C)C(=O)[C@H]2C)cc1` here? zone 1

For this molecule, which bin applies? `C[C@@H]1C(=O)N(C)c2ccc(Nc3ccc(C(=O)NC4CCN(C)CC4)cc3)cc2N1C1CCCC1` zone 2

Further cases:
Lab note: which band did `C[C@@H]1C(=O)N(C)c2ccc(Nc3ccc(S(=O)(=O)N4CCN(C)CC4)cc3)cc2N1Cc1ccccc1` land in? zone 2

Would you mind sorting `C[C@@H]1C(=O)N(C)c2ccc(Nc3ccc(S(=O)(=O)N(C)C)cc3)cc2N1C1CCOCC1` into the appropriate category? zone 2
